Where do the numbers come from? From PubChem BioAssay (NCI).

Tested on: MDA-MB-468 breast
Experiment: NCI tumour cell line growth inhibition, 48 h
Listing of recorded GI50 by entry.

Kindly indicate its recorded GI50. Item: O=C(Nc1cccc(Cl)c1)c1cc(N=Nc2ccc([N+](=O)[O-])cc2Cl)ccc1O
2.91 µM

Kindly indicate its recorded GI50. Item: COc1cc(-c2ccc(NC(=O)NC3CC3)c(OC)c2)ccc1NC(=O)NC1CC1
> 100 µM

Kindly indicate its recorded GI50. Item: CC(C)(C)NC/C(=C\c1ccccc1)C(=O)c1ccccc1
0.713 µM

Kindly indicate its recorded GI50. Item: CCOc1c(C#N)c2c(N)ncnc2n1C1OC(CO)C(O)C1O (stereo not given)
1.75 µM

API: the following record is the query input.
Kindly indicate its recorded GI50. Item: Nc1nc(N)c2c(n1)NC(c1ccc(Cl)cc1)CC(c1ccc(Nc3nc(NCCO)nc(Nc4ccc(Cl)cc4)n3)cc1)=N2 (stereo not given)
1.39 µM

====

Listing of recorded TGI by entry.
Test system: MALME-3M melanoma
Assay: NCI tumour cell line growth inhibition, 48 h

Kindly indicate its recorded TGI. Item: CN1CCN(c2ccc(Nc3nc(N4CCN(S(=O)(=O)c5ccc(Cl)cc5)CC4)c4sccc4n3)cc2)CC1
3.03 µM

Kindly indicate its recorded TGI. Item: Cc1cc(N=C2NC(=O)/C(=C/c3cc(C(C)(C)C)c(O)c(C(C)(C)C)c3)S2)n[nH]1
14.2 µM

Kindly indicate its recorded TGI. Item: COc1ccc(-c2cc(-c3cc(C(C)C)c(O)cc3C)nn2-c2ccc(S(N)(=O)=O)cc2)cc1
24.3 µM

Kindly indicate its recorded TGI. Item: O=C(Nc1nc2ccc([N+](=O)[O-])cc2s1)Nc1ccccc1I
8.4 µM

API: the following record is the query input.
Kindly indicate its recorded TGI. Item: CCC(C)S(=O)(=O)c1oc(-c2ccc(C)cc2)nc1S(=O)(=O)c1ccccc1 (stereo not given)
3.03 µM

====

Tested on: TK-10 renal
Assay: NCI tumour cell line growth inhibition, 48 h
Listing of recorded GI50 by entry.

// known answers, use as guide
State, for TK-10 renal, measured GI50 of the molecule listed here: COc1ccc(-c2cc(-c3cc(C(C)C)c(O)cc3C)nn2-c2ccc(S(N)(=O)=O)cc2)cc1
15 µM

State, for TK-10 renal, measured GI50 of the molecule listed here: C=C1CC[C@@H]2[C@]3(C)COC(c4cn[nH]c4-c4ccc(Br)cc4)O[C@@H]3CC[C@@]2(C)[C@@H]1C/C=C1/C(=O)OCC1O (some centres undefined)
18.4 µM

State, for TK-10 renal, measured GI50 of the molecule listed here: CN1CCN(c2ccc(Nc3nc(N4CCN(S(=O)(=O)c5ccc(Cl)cc5)CC4)c4sccc4n3)cc2)CC1
6.47 µM

More entries:
State, for TK-10 renal, measured GI50 of the molecule listed here: CCC(C)S(=O)(=O)c1oc(-c2ccc(C)cc2)nc1S(=O)(=O)c1ccccc1 (centres undefined)
1.73 µM

====

Test system: SK-MEL-28 melanoma
Experiment: NCI tumour cell line growth inhibition, 48 h
ENDPOINT_NAME: TGI (µM)
// return numeric value only (unit: µM, not printed)

// known answers, use as guide
Kindly indicate its recorded TGI. Item: CN1CCN(c2ccc(Nc3nc(N4CCN(S(=O)(=O)c5ccc(Cl)cc5)CC4)c4sccc4n3)cc2)CC1
3.36

Kindly indicate its recorded TGI. Item: COc1ccc(-c2cc(-c3cc(C(C)C)c(O)cc3C)nn2-c2ccc(S(N)(=O)=O)cc2)cc1
25.7

Kindly indicate its recorded TGI. Item: Cc1cc(N=C2NC(=O)/C(=C/c3cc(C(C)(C)C)c(O)c(C(C)(C)C)c3)S2)n[nH]1
17.1

More entries:
Kindly indicate its recorded TGI. Item: CCC(C)S(=O)(=O)c1oc(-c2ccc(C)cc2)nc1S(=O)(=O)c1ccccc1 (stereo not given)
3.14

Kindly indicate its recorded TGI. Item: C=C1CC[C@@H]2[C@]3(C)COC(c4cn[nH]c4-c4ccc(Br)cc4)O[C@@H]3CC[C@@]2(C)[C@@H]1C/C=C1/C(=O)OCC1O (stereo not given in full)
4.95

====

System: MDA-MB-468 breast
Assay: NCI tumour cell line growth inhibition, 48 h
ENDPOINT_NAME: TGI

// known answers, use as guide
Kindly indicate its recorded TGI. Item: O=C(Nc1nc(-c2ccc(Cl)cc2)nc2c1sc(=S)n2-c1ccccc1)C(F)(F)F
20.5 µM

Kindly indicate its recorded TGI. Item: O=C(Nc1nc2ccc([N+](=O)[O-])cc2s1)Nc1ccccc1I
7.79 µM

Kindly indicate its recorded TGI. Item: O=S(=O)(Nc1ccc2ccccc2c1)c1ccc(-c2cnc(C3CC3)o2)cc1
12 µM

Kindly indicate its recorded TGI. Item: O=C(Nc1ccc2c(c1)OCO2)C(=O)c1c[nH]c2cc(F)ccc12
67.9 µM

Kindly indicate its recorded TGI. Item: O=C(NNC(=S)Nc1ccccc1)c1ccccn1
90.9 µM

More entries:
Kindly indicate its recorded TGI. Item: COC(=O)c1ccc2c(c1)c1c(C)c3ccncc3c(C)c1n2C
15.2 µM

Kindly indicate its recorded TGI. Item: CC1(O)Cc2c(O)c3c(c(O)c2CC1O)C(=O)C=CC3=O (stereo not given)
1.93 µM

Kindly indicate its recorded TGI. Item: CC(=O)C1CCC2C3CC=C4CC(SC(=N)N)CCC4(C)C3CCC12C (stereo not given)
2.9 µM

Kindly indicate its recorded TGI. Item: O=C(Nc1cccc(Cl)c1)c1cc(N=Nc2ccc([N+](=O)[O-])cc2Cl)ccc1O
> 100 µM

Kindly indicate its recorded TGI. Item: Cc1cc(N=C2NC(=O)/C(=C/c3cc(C(C)(C)C)c(O)c(C(C)(C)C)c3)S2)n[nH]1
13.2 µM

====

Tested on: MDA-MB-468 breast
Test: NCI tumour cell line growth inhibition, 48 h
Listing of recorded GI50 by entry.

// known answers, use as guide
Kindly indicate its recorded GI50. Item: CN1CCN(c2ccc(Nc3nc(N4CCN(S(=O)(=O)c5ccc(Cl)cc5)CC4)c4sccc4n3)cc2)CC1
1640 nM

Kindly indicate its recorded GI50. Item: CC[C@@H](C)Nc1cc(C(=O)NC2CC3CCC(C2)N3c2ccc(C(=O)C3CC3)cn2)c(C)cc1C(N)=O (some centres undefined)
18.9 nM

Kindly indicate its recorded GI50. Item: CC(C)(C)c1ccc(O)c(CN(Cc2cc(C(C)(C)C)ccc2O)C2CCCCC2)c1
4400 nM

Kindly indicate its recorded GI50. Item: COc1cc2ncn(-c3cc(OCc4ccccc4C(F)(F)F)c(C(C)=O)s3)c2cc1OC
> 23300 nM

Kindly indicate its recorded GI50. Item: CN1CCN(Cc2ccc(NC(=O)c3cncc(C#Cc4cnn5ccccc45)c3)cc2C(F)(F)F)CC1
965 nM

Kindly indicate its recorded GI50. Item: CC(C)CCC(=O)[C@@H](C)[C@H]1[C@@H](OC2OCC(O)C(O)C2NS(C)(=O)=O)C[C@H]2[C@@H]3CC=C4C[C@@H](O)CC[C@]4(C)[C@H]3CC[C@]12C (some centres undefined)
3380 nM

More entries:
Kindly indicate its recorded GI50. Item: COc1ccc(-c2cc(-c3cc(C(C)C)c(O)cc3C)nn2-c2ccc(S(N)(=O)=O)cc2)cc1
2070 nM

Kindly indicate its recorded GI50. Item: O=C(Nc1cccnc1)c1ccc2ccc3ccc(C(=O)Nc4cccnc4)nc3c2n1
69.7 nM

Kindly indicate its recorded GI50. Item: O=C(Nc1nc(-c2ccc(Cl)cc2)nc2c1sc(=S)n2-c1ccccc1)C(F)(F)F
3790 nM
